Source: ChEMBL document CHEMBL3632593

# STUDY_TARGET: Cytochrome P450 3A4 (Homo sapiens)
# Sequence (P08684 whole entry): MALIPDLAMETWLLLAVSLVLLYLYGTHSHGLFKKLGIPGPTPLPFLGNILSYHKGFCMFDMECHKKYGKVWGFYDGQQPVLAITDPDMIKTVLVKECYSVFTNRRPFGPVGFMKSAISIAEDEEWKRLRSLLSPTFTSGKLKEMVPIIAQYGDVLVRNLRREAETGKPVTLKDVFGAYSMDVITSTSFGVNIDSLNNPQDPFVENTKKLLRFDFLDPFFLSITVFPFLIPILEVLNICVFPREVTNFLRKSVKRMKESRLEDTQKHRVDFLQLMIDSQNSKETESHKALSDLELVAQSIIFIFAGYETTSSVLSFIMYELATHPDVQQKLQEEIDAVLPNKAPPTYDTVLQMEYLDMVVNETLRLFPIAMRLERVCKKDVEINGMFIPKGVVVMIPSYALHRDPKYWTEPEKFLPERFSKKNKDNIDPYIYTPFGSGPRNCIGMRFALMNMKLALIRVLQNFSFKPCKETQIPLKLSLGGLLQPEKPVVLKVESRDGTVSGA
# ASSAY_NAME: Inhibition of CYP3A4 in human Liver microsomes after 5 mins by LC-MS/MS method
PROPERTY_LABEL: IC50

smiles_structure=O=C(Cn1cnc([N+](=O)[O-])n1)N1CCN(Cc2ccc(Cl)c(Cl)c2)CC1 property_label=IC50 endpoint_value="> 20 µM"

----------
# STUDY_TARGET: Cytochrome P450 2C8 (Homo sapiens, UniProt P10632)
# Sequence (P10632 whole entry): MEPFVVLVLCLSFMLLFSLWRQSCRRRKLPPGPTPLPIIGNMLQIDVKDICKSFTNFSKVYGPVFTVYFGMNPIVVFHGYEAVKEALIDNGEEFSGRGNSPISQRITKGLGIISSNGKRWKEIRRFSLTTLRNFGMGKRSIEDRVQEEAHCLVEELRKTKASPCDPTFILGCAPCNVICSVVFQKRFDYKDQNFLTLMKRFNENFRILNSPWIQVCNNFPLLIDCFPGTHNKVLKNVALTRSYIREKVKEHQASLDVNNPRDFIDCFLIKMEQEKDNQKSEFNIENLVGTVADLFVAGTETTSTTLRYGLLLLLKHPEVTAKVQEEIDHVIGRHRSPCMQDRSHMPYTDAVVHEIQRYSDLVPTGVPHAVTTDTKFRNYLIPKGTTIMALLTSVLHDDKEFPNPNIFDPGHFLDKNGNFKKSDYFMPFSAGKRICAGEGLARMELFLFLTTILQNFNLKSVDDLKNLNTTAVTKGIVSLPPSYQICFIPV
# ASSAY_NAME: Inhibition of CYP2C8 in human Liver microsomes after 5 mins by LC-MS/MS method
PROPERTY_LABEL: IC50

smiles_structure=O=C(Cn1cnc([N+](=O)[O-])n1)N1CCN(Cc2ccc(Cl)c(Cl)c2)CC1 endpoint_value="> 20 µM"
